For each of the compounds below, state its inhibition.
# Experimental System: Serine/threonine-protein kinase BRSK2 (Homo sapiens) (UniProt Q8IWQ3);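 also: values are mean inhibition of BRSK2 from the GSK PKIS screening dataset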
# Sequence (whole entry): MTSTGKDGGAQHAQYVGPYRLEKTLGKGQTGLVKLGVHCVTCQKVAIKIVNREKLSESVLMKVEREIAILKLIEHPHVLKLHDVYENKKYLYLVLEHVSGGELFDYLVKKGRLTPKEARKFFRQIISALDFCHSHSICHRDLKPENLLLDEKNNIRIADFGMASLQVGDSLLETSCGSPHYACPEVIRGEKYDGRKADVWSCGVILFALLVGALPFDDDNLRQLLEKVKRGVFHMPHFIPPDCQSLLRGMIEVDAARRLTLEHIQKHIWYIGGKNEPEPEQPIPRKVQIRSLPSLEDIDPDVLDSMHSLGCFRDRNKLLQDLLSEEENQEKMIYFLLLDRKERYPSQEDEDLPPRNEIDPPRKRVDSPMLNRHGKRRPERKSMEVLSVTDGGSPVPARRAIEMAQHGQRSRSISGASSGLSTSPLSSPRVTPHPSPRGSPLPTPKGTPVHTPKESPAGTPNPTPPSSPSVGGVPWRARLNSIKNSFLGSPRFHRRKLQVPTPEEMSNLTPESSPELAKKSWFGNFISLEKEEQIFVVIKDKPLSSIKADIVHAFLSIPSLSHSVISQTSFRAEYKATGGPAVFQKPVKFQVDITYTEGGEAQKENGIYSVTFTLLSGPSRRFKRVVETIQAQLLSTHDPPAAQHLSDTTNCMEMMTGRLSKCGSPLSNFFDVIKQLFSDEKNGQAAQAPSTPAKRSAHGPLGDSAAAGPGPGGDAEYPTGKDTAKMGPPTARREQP
# Condition Label: at 0.1 µM
Entry rule: numbers only, all in %.

Dear colleague, I am looking for the recorded inhibition of the following compound: CN(C)CCCNc1nccc(-c2c(-c3ccc(F)cc3)nn3cc(C(F)(F)F)ccc23)n1
0.82

Dear colleague, I am looking for the recorded inhibition of the following compound: NS(=O)(=O)c1ccc(Nc2cc(-c3ccc(O)c(F)c3)n[nH]2)cc1
2.75

Dear colleague, I am looking for the recorded inhibition of the following compound: COc1cccc(-n2cnc3c(N/N=C/c4ccncc4)ncnc32)c1
-0.23

Dear colleague, I am looking for the recorded inhibition of the following compound: COc1cccc(/C=N/Nc2ncnc3c2cnn3-c2cccc(OC)c2)c1
1.04

Dear colleague, I am looking for the recorded inhibition of the following compound: FC(F)(F)c1cccc(Nc2nccc(-c3cnn4nc(-c5ccccc5)ccc34)n2)c1
1.87

Dear colleague, I am looking for the recorded inhibition of the following compound: CCc1cccc(CC)c1/C=C/c1cncc(C(=O)NC)c1
0.46

Dear colleague, I am looking for the recorded inhibition of the following compound: C/C(Nc1ccc(S(N)(=O)=O)cc1)=C1/C(=O)Nc2ccccc21
4.55

Dear colleague, I am looking for the recorded inhibition of the following compound: O=C(NCC1CC1)c1ccc(-c2cccc(C(=O)NC3CC3)c2)cc1
1.44

Dear colleague, I am looking for the recorded inhibition of the following compound: NC(=O)c1cc(-c2ccncc2)cc(-c2ccccc2)c1N
1.64

Dear colleague, I am looking for the recorded inhibition of the following compound: Fc1ccc(-c2ncn(C3CCNCC3)c2-c2ccnc(Oc3ccc(Oc4ccccc4)cc3)n2)cc1
1.27

====

For each of the compounds below, state its inhibition.
# Experimental System: Receptor-type tyrosine-protein kinase FLT3 (Homo sapiens);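 also: mean inhibition value from the GSK PKIS kinase screening set, with the assay run by Nanosyn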
# Condition Label: at 0.1 µM
Entry rule: numbers only, all in %.

Field: inhibition (Receptor-type tyrosine-protein kinase FLT3 (Homo sapiens)). Entry: CS(=O)(=O)CCNCc1cc(-c2cc3c(Nc4ccc(OCc5cccc(F)c5)c(Cl)c4)ncnc3s2)cs1
2.69

Field: inhibition (Receptor-type tyrosine-protein kinase FLT3 (Homo sapiens)). Entry: Fc1ccc(-c2ncn(C3CCNCC3)c2-c2ccnc(Oc3ccc(F)c(F)c3)n2)cc1
-1.09

Field: inhibition (Receptor-type tyrosine-protein kinase FLT3 (Homo sapiens)). Entry: O=C(Nc1n[nH]c2nc(-c3ccco3)ccc12)C1CC1
0.89

Field: inhibition (Receptor-type tyrosine-protein kinase FLT3 (Homo sapiens)). Entry: CCC(=O)Nc1ccc(C)c(-c2ccc(C(=O)NCC3CC3)cc2)c1
3.07

Field: inhibition (Receptor-type tyrosine-protein kinase FLT3 (Homo sapiens)). Entry: CNC(=O)c1cncc(/C=C/c2c(C)cccc2C)c1
-1.59

Field: inhibition (Receptor-type tyrosine-protein kinase FLT3 (Homo sapiens)). Entry: Cc1ccc(NC(=O)c2ccoc2)cc1-c1ccc(C(=O)NCC2CC2)cc1
0.8

Field: inhibition (Receptor-type tyrosine-protein kinase FLT3 (Homo sapiens)). Entry: Nc1nccc(-c2c(-c3ccc(F)cc3)ncn2C2CCC(O)CC2)n1 (stereo not drawn)
1.8

Field: inhibition (Receptor-type tyrosine-protein kinase FLT3 (Homo sapiens)). Entry: Fc1ccc(-c2ncn(CCCN3CCOCC3)c2-c2ccncc2)cc1
0.43

Field: inhibition (Receptor-type tyrosine-protein kinase FLT3 (Homo sapiens)). Entry: C[C@@H](Oc1cc(-n2cnc3ccc(OC4CCN(C)CC4)cc32)sc1C(N)=O)c1ccccc1Cl
3.07

Field: inhibition (Receptor-type tyrosine-protein kinase FLT3 (Homo sapiens)). Entry: COc1cc(N2CCN(C(C)C)CC2)ccc1Nc1nc(Nc2ccc(F)cc2C(=O)NC[C@@H](O)CO)c2cc[nH]c2n1
1.53

Field: inhibition (Receptor-type tyrosine-protein kinase FLT3 (Homo sapiens)). Entry: CCc1cccc(CC)c1/C=C/c1cncc(C(=O)NC)c1
2.07

Field: inhibition (Receptor-type tyrosine-protein kinase FLT3 (Homo sapiens)). Entry: NC(=O)c1cc(-c2ccncc2)cc(-c2ccccc2)c1N
-1.2

Field: inhibition (Receptor-type tyrosine-protein kinase FLT3 (Homo sapiens)). Entry: NC(=O)Cc1ccccc1Oc1nccc(-c2c(-c3ccc(F)cc3)ncn2C2CCNCC2)n1
-1.59

Field: inhibition (Receptor-type tyrosine-protein kinase FLT3 (Homo sapiens)). Entry: NC(=O)c1cc(-c2ccc(F)cc2)cc(-c2ccncc2)c1N
3.14

Field: inhibition (Receptor-type tyrosine-protein kinase FLT3 (Homo sapiens)). Entry: COc1cc2ncn(-c3cc(OCc4ccccc4C(F)(F)F)c(C(C)=O)s3)c2cc1OC
1.77

Field: inhibition (Receptor-type tyrosine-protein kinase FLT3 (Homo sapiens)). Entry: CCS(=O)(=O)c1ccc(OC)c(Nc2ncc(-c3cccc(-c4ccccc4F)c3)o2)c1
6.25

Field: inhibition (Receptor-type tyrosine-protein kinase FLT3 (Homo sapiens)). Entry: CN(C)CCCNc1nccc(-c2c(-c3ccc(F)cc3)nn3cc(C(F)(F)F)ccc23)n1
0.5

Field: inhibition (Receptor-type tyrosine-protein kinase FLT3 (Homo sapiens)). Entry: N#Cc1ccc(Oc2nccc(-c3c(-c4ccc(F)cc4)ncn3C3CCNCC3)n2)cc1
-0.97

Field: inhibition (Receptor-type tyrosine-protein kinase FLT3 (Homo sapiens)). Entry: NS(=O)(=O)c1ccc(N/N=C2\C(=O)Nc3ccc(C(=O)NCCCn4ccnc4)cc32)cc1
3.35

Field: inhibition (Receptor-type tyrosine-protein kinase FLT3 (Homo sapiens)). Entry: COc1cccc(-n2cnc3c(N/N=C/c4ccncc4)ncnc32)c1
0.88

Field: inhibition (Receptor-type tyrosine-protein kinase FLT3 (Homo sapiens)). Entry: CN(C)CCOc1ccc(-c2cc(-c3ccc4c(c3)CCC4=NO)c(-c3ccncc3)o2)cc1
-0.73

Field: inhibition (Receptor-type tyrosine-protein kinase FLT3 (Homo sapiens)). Entry: CN1CCN(CCCNc2nc3ccc(Oc4ccc(NC(=O)Nc5cc(C(F)(F)F)ccc5F)cc4)cc3[nH]2)CC1
15

Field: inhibition (Receptor-type tyrosine-protein kinase FLT3 (Homo sapiens)). Entry: NS(=O)(=O)c1ccc(N/N=C2\C(=O)Nc3ccc(-c4cnco4)cc32)cc1
5.93

Field: inhibition (Receptor-type tyrosine-protein kinase FLT3 (Homo sapiens)). Entry: FC(F)(F)c1cccc(Nc2nccc(-c3cnn4nc(-c5ccccc5)ccc34)n2)c1
1.84

Field: inhibition (Receptor-type tyrosine-protein kinase FLT3 (Homo sapiens)). Entry: Fc1ccc(-c2c(-c3ccncc3)nc3n2CCS3)cc1
0.81

Field: inhibition (Receptor-type tyrosine-protein kinase FLT3 (Homo sapiens)). Entry: Cc1ccc(C(=O)NC2CCC2)cc1-c1ccc(C(=O)NCC2CC2)cc1
0.07

Field: inhibition (Receptor-type tyrosine-protein kinase FLT3 (Homo sapiens)). Entry: C#Cc1cccc(Nc2ncnc3ccc(OCCCCNCCS(C)(=O)=O)cc23)c1
1.29

Field: inhibition (Receptor-type tyrosine-protein kinase FLT3 (Homo sapiens)). Entry: O=C1Nc2ccccc2/C1=C/Nc1ccc(-n2cncn2)cc1
12.5

====

# Experimental System: Tyrosine-protein kinase ABL2 (Homo sapiens)
# Condition Label: at 1 µM
# Description: GSK_PKIS: ARG mean inhibition at 1 uM [Nanosyn]
Measurement Label: inhibition (%)
Entry rule: numbers only, all in %.

Dear colleague, I am looking for the recorded inhibition of the following compound: NCc1ccc(-n2c(-c3nonc3N)nc3cnccc32)cc1
6.75

Dear colleague, I am looking for the recorded inhibition of the following compound: NC(=O)c1ccc(Oc2nccc(-c3c(-c4ccc(F)cc4)ncn3C3CCNCC3)n2)cc1
3.64

Dear colleague, I am looking for the recorded inhibition of the following compound: O=C(Nc1n[nH]c2nc(-c3ccco3)ccc12)C1CC1
6.13

Dear colleague, I am looking for the recorded inhibition of the following compound: Cc1nnc(-c2ccc(C)c(-c3ccc(C(=O)NCc4ccc(Cl)cc4)cc3)c2)o1
2.57

Dear colleague, I am looking for the recorded inhibition of the following compound: CCN(CC)Cc1ccc(Nc2nccc(-c3cnn4ncccc34)n2)cc1
22.2

Dear colleague, I am looking for the recorded inhibition of the following compound: NS(=O)(=O)c1ccc(N/N=C2\C(=O)Nc3ccc(C(=O)NCCCn4ccnc4)cc32)cc1
9.85

Dear colleague, I am looking for the recorded inhibition of the following compound: COC(=O)Nc1nc2ccc(Sc3ccc(NC(=O)Nc4cc(C(F)(F)F)ccc4F)cc3)cc2[nH]1
58.9

Dear colleague, I am looking for the recorded inhibition of the following compound: CCc1ccc(Oc2nccc(-c3c(-c4ccc(F)cc4)ncn3C3CCNCC3)n2)cc1
5.01

Dear colleague, I am looking for the recorded inhibition of the following compound: O=C1NC(=O)C(c2cccc(Cl)c2)=C1Nc1ccc(Cl)c(C(=O)O)c1
-0.4

Dear colleague, I am looking for the recorded inhibition of the following compound: CN1CCN(CCCNc2nc3ccc(Oc4ccc(NC(=O)Nc5cc(C(F)(F)F)ccc5F)cc4)cc3[nH]2)CC1
15.4
